assay: Cytotoxicity against HEK293 cells assessed as cell growth inhibition measured after 48 hrs by MTT assay; format: toxicity, cell-based, Homo sapiens; details: human, HEK293 cells
value kind: IC50 at 48 h

COc1ccc(N=S(C)(=O)c2c[nH]c3cc(F)ccc23)cc1 (centres undefined): > 40 µM
COc1ccc(N=S(C)(=O)c2c[nH]c3ccc(Br)cc23)cc1 (centres undefined): > 40 µM
Cc1ccc(N=S(C)(=O)c2c[nH]c3ccccc23)cc1 (centres undefined): 40 µM

Please examine the following record next.
Input: Which IC50 at 48 h value is on record for CS(=O)(=Nc1cccc(C(F)(F)F)c1)c1c[nH]c2ccccc12 (centres undefined) ?
Output: 40 µM

* * *

List of pIC50 values.
system: MCF7; experiment: Anticancer activity against human MCF7 cells assessed as cell growth inhibition measured after 48 hrs by MTT assay; type: functional, cell-based; conditions: MCF7, 48 h
Reminder that pIC50 means the negative base-10 logarithm of the concentration expressed in mol/L.

These recorded examples may help you get a feel for the data.
COc1ccc(N=S(C)(=O)c2c[nH]c3cc(F)ccc23)cc1 (stereo not drawn): 5.77
COc1ccc2[nH]cc(S(C)(=O)=Nc3cc(OC)c(OC)c(OC)c3)c2c1 (stereo not drawn): 4.41
COc1ccc(N=S(C)(=O)c2c[nH]c3ccc(Br)cc23)cc1 (stereo not drawn): 5.89

Input: Which pIC50 value is on record for CS(=O)(=Nc1ccc(F)cc1)c1c[nH]c2ccccc12 (stereo not drawn) ?
Output: 4.40

* * *

tested on: MCF7; assay: Anticancer activity against human MCF7 cells assessed as cell growth inhibition measured after 48 hrs by MTT assay; type: functional, cell-based; settings: MCF7, 48 h
pIC50: −log10 of the molar value.
value kind: pIC50

These recorded examples may help you get a feel for the data.
CS(=O)(=Nc1ccc(F)c(F)c1)c1c[nH]c2ccccc12 (centres undefined): < 4.40
CS(=O)(=Nc1ccc(Br)cc1)c1c[nH]c2ccccc12 (centres undefined): < 4.40
COc1ccc(N=S(C)(=O)c2c[nH]c3ccccc23)cc1 (centres undefined): < 4.40

Please examine the following record next.
Input: Which pIC50 value is on record for COc1ccc(N=S(C)(=O)c2c[nH]c3ccc(OC)cc23)cc1 (centres undefined) ?
Output: < 4.40
